- study.target: RGG-box (isolated) (UniProt P09651-2 197-249)
- Sequence (P09651 197-249): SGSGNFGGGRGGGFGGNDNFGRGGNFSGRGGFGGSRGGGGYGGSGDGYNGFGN
- procedure.summary: NMR HSQC CSP titration (global fit); 100 mM KCl; ITC/CD: 20 mM Tris pH 8.0, 100 mM KCl, 25 C; NMR: 10 mM potassium phosphate pH 6.5, 100 mM KCl, 298 K (10% D2O for HSQC)
- condition.info: protein: recombinant; tags: GST removed by TEV; intramolecular parallel G4
measurement.name: pKd
One number for each entry, as −log10 of the molar value.

What does the data say about its pKd? Entry: UUAGGGUUAGGGUUAGGGUUAGGG (structured_RNA) [TERRA-24]
4.96
